Recorded 5 days Relative Purity (%), one value per entry.
- Format: physicochemical
- measurement_parameters: pH 4.5, 40° C., 5 days, compared with the corresponding sample at 0 day
- Description: 1 mg of each sample was dissolved in a buffer solution, which contains 150 mM sodium chloride and 20 mM phosphate, from which a solution of concentration of 4 mg/ml was prepared and its pH is 8.0. The testing sample solutions were placed in a thermostat of 40° C. LC-MS was used to determine the purity of polypeptide. […] Expressed as a percentage, purity is the percentage corresponding to the target peak in the total of all peaks including impurities. […]
Where no end group is shown, it is not given here. [ ]: non-standard residue; d: D form. code ∗ = not defined here
property_name: 5 days Relative Purity (%)

{"columns": ["substance", "property_name", "reported_result"],
 "data": [
  ["HdAEGTFTSDL SKQMEEEAVR LFIEWLKNGG PSSGAPPPC-NH2 [Sample 2-1]", "5 days Relative Purity (%)", "95.71%"],
  ["HGEGTFTSDLSKQMEEEAVRLFIEWLKQGGPSSGAPPPK* [Sample 5]", "5 days Relative Purity (%)", "97.97%"],
  ["HdAEGTFTTSDL SKQNleEEEAVR LFIEWLKQGG PSSGAPPPC-PEG40K [Sample 13]", "5 days Relative Purity (%)", "99.80%"],
  ["HdAEGTFTSDL SKQMEEEAVR LFIEWLVKGG PSSGAPPPK* (H[dA]EGTFTSDLSKQMEEEAVRLFIEWLVKGGPSSGAPPPK(code ∗); reading uncertain; also: C-terminal modification (*)) [Sample 11]", "5 days Relative Purity (%)", "98.37%"],
  ["HdAEGTFTSDL SKQMEEEAVR LFIEWLKNGG PSSGAPPPC-PEG40K [Sample 4]", "5 days Relative Purity (%)", "99.70%"],
  ["HdAEGTFTSDL SKQNleEEEAVR LFIEWLKQGG PSSGAPPPS-NH2 [Sample 3]", "5 days Relative Purity (%)", "99.80%"],
  ["HdAEGTFTTSDL SKQNleEEEAVR LFIEWLKQGG PSSGAPPPC(AM) [Sample 9-2]", "5 days Relative Purity (%)", "99.90%"]
]}

----------
- procedure_summary: Stability of Exendin-4 derivatives under basic conditions (PBS pH 7.4, 40° C., LC-MS purity)
- Type: physicochemical
- measurement_parameters: 10 days, compared with the corresponding sample at 0 day
Where no end group is shown, it is not given here. [ ]: non-standard residue; d: D form. code ∗ = not defined here

{"columns": ["substance", "result_unit", "10 days Relative Purity (%)"],
 "data": [
  ["HdAEGTFTSDL SKQMEEEAVR LFIEWLVKGG PSSGAPPPK* (H[dA]EGTFTSDLSKQMEEEAVRLFIEWLVKGGPSSGAPPPK(code ∗); reading uncertain; also: C-terminal modification (*)) [Sample 11]", "%", 98.07],
  ["HGEGTFTSDLSKQMEEEAVRLFIEWLKQGGPSSGAPPPK* [Sample 5]", "%", 95.83],
  ["HdAEGTFTTSDL SKQNleEEEAVR LFIEWLKQGG PSSGAPPPC(AM) [Sample 9-2]", "%", 99.70],
  ["HdAEGTFTSDL SKQNleEEEAVR LFIEWLKQGG PSSGAPPPS-NH2 [Sample 3]", "%", 99.60],
  ["HdAEGTFTSDL SKQMEEEAVR LFIEWLKNGG PSSGAPPPC-PEG40K [Sample 4]", "%", 98.50],
  ["HdAEGTFTTSDL SKQNleEEEAVR LFIEWLKQGG PSSGAPPPC-PEG40K [Sample 13]", "%", 99.10]
]}

Origin of measurements: patent US8716221B2
